Biological target: IRAP (Rattus norvegicus (Rat))
Experiment: Inhibition of IRAP activity (AVP degradation by rat epididymal fat pad microsomes, MALDI-MS)
Settings: read-out: IRAP IC50; rat fat pad microsomes, AVP 25 μM, 1 h at 37° C.
pIC50 reference
Conceptually, pIC50 converts a concentration in mol/L into minus its log10.

Answered examples (3):
Incoming: // query pIC50 value for entry "Cc1ccc(OC[C@H](N)[C@](O)(Cc2cc(OC3CCCCC3)ccn2)C(=O)O)nc1"
Outgoing: 8.06

Incoming: Tell me the measured pIC50 of "N[C@@H](c1ccc(N2CCOCC2)cc1)[C@](O)(Cc1cc(OC2CCCCC2)ccn1)C(=O)O" , please.
Outgoing: 8.28

Incoming: Given "COc1ccnc(C[C@](O)(C(=O)O)[C@@H](N)CC(C)C)c1C" , state its recorded pIC50.
Outgoing: 6.60

Proceed to the following item.
Incoming: Item under review: "CC(C)C[C@H](N)[C@](O)(Cc1cc2c(cn1)OCCO2)C(=O)O" . Reported pIC50?
Outgoing: 6.54

* * *

Molecular target: IRAP (Rattus norvegicus (Rat), UniProt P97629)
Sequence (P97629 whole entry): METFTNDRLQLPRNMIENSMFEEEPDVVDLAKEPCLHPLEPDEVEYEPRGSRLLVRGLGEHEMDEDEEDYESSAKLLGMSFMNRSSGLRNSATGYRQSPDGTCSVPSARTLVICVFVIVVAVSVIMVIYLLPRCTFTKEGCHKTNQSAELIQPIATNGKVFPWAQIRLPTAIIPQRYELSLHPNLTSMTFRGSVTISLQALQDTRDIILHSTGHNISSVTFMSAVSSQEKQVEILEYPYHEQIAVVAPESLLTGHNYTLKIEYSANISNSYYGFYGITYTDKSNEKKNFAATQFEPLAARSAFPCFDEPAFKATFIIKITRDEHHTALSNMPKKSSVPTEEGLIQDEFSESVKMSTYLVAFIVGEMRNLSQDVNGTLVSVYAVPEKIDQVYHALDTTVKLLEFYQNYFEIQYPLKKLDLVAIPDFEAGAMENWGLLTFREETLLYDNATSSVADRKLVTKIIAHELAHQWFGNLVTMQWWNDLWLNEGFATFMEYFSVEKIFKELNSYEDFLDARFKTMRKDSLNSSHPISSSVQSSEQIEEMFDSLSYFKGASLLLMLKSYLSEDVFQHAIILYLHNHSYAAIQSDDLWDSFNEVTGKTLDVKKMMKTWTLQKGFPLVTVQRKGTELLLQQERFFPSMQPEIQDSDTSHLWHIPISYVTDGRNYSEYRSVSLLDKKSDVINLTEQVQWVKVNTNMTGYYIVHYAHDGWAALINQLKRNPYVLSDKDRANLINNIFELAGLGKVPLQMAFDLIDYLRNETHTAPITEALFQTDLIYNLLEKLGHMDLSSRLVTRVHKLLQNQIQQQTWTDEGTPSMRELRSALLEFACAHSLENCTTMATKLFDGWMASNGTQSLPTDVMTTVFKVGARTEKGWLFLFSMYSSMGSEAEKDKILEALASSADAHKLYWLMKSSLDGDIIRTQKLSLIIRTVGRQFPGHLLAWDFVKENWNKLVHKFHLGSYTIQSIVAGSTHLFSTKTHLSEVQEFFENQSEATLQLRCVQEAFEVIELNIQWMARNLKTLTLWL
Assay: Inhibition of IRAP activity (AVP degradation by rat epididymal fat pad microsomes, MALDI-MS)
Details: read-out: IRAP IC50; value marked *: measured using a dihydrochloride salt of the compound of the Example
Measurement Kind: pIC50
// pIC50 is dimensionless: -log10 of concentration (M)

Incoming: May I ask what pIC50 has been recorded for "N[C@@H](c1ccc(Br)cc1)[C@](O)(Cc1cc(OC2CCCCC2)ccn1)C(=O)O" ?
Outgoing: 8.27

* * *

Target: IRAP (Rattus norvegicus (Rat), UniProt P97629)
Test: Inhibition of IRAP activity (AVP degradation by rat epididymal fat pad microsomes, MALDI-MS)
Conditions: read-out: IRAP IC50; rat fat pad microsomes, AVP 25 μM, 1 h at 37° C.
We begin with a simple list: items and their reported IC50.
Number only, in nM; omit the unit.

// below: answered compounds
Incoming: // lookup IC50 for "N[C@@H](COc1ccc(F)cc1)[C@](O)(Cc1cc(NC2CCCCC2)ccn1)C(=O)O"
Outgoing: 15

Incoming: Bench note: what IC50 did "N[C@@H](/C=C/c1ccccc1)[C@](O)(Cc1cc(OC2CCCCC2)ccn1)C(=O)O" show?
Outgoing: 8

Incoming: Item under review: "COCc1ccc(OC[C@H](N)[C@](O)(Cc2cc(OC3CCCCC3)ccn2)C(=O)O)cc1" . Reported IC50?
Outgoing: 11

***
Incoming: Value lookup for IC50; key = "N[C@@H](COc1cccc(Br)c1)[C@](O)(Cc1cc(OC2CCCCC2)ccn1)C(=O)O"
Outgoing: 13
